- Test system: Trypanosoma cruzi
- method notes: GSK_TCAKS: pIC50 H2C9 Imaging: H9c2 Host Cardiomyocytes. […] Cells were then washed once with PBS before infection. T. cruzi trypomastigotes, collected at days 5 to 8 after infection from LLC-MK2 parasite infected cultures, were allowed to swim out for 4h at 37C from a centrifuged pellet (2,500 rpm/10 min/room temperature). Trypomastigotes were then collected and counted in a CASY Cell Counter. Trypomastigotes, in supplemented DMEM, were added to H9c2 cultures in a multiplicity of infection of 1 and incubated for 18 h. Cells were washed once with PBS before incubation of the infected H9c2 monolayer with trypsin (Life-Technologies) to detach cells from the flask. Cells were counted in a CASY Cell Counter using a 150 um capillary and their density set at 5 * 10^4 cells per mL in supplemented assay DMEM. Infected H9c2 were dispensed into 384-well poly-lysine coated assay plates at 50uL per well using a Multidrop Combi dispenser. After seeding them, the plates were incubated at 37C, 5% CO2 for 72h. Cultures were then fixed and stained by addition of 50 uL of a solution containing 8% formaldehyde and 4 uM DRAQ5 DNA dye (BioStatus, UK) per well. […] Five images were collected per well for reliable statistical analysis. Automated image analysis was performed with a script developed on Acapella High Content Imaging and Analysis Software (PerkinElmer). Output: Number of H9c2 Host Cardiomyocytes nuclei to determine drug-related cytotoxicity.
- Format: functional, organism-based, Rattus norvegicus
- cond: H9c2, 4 h

{"columns": ["molecule", "target under test", "IC50"],
 "data": [
  ["Cc1[nH]c2ccccc2c(=O)c1Cc1c(C)[nH]c2ccccc2c1=O", "Trypanosoma cruzi", "> 50.1 µM"],
  ["NC(=O)c1ccsc1NC(=O)c1ccc([N+](=O)[O-])s1", "Trypanosoma cruzi", "> 50.1 µM"],
  ["c1ccc2c(CCOc3nccnc3-c3ccncc3)c[nH]c2c1", "Trypanosoma cruzi", "> 50.1 µM"],
  ["O=C(CCc1ccc(-c2ccccc2)o1)N1CCN(c2ccc(O)cc2)CC1", "Trypanosoma cruzi", "> 50.1 µM"],
  ["COc1cc(NC(=O)Nc2cccc(CNC(=O)OC3CCCCC3)c2)ccc1-c1cnco1", "Trypanosoma cruzi", "15.8 µM"],
  ["COc1ccc(S(=O)(=O)NCc2ccc(-c3ccc(CN(C)CCO)cc3)cc2)cc1", "Trypanosoma cruzi", "> 50.1 µM"],
  ["COc1cccc(S(=O)(=O)Nc2ccc3c(c2)CC(N2CCC(NC(=O)C4CC4)CC2)C3)c1 (stereo not given)", "Trypanosoma cruzi", "> 50.1 µM"],
  ["O=c1[nH]cnc2c([C@@H]3O[C@H](CO)[C@@H](O)[C@H]3O)n[nH]c12", "Trypanosoma cruzi", "> 50.1 µM"],
  ["Cc1ccc2ccc(C(Nc3ccccn3)c3cccnc3)c(O)c2n1 (stereo not given)", "Trypanosoma cruzi", "31.6 µM"],
  ["CCC1Oc2cc(S(=O)(=O)N(C)CC(=O)N3CCc4ccccc4C3)c(C)cc2NC1=O (stereo not given)", "Trypanosoma cruzi", "> 50.1 µM"],
  ["CCC(=O)N1N=C(c2ccc3c(c2)CCCC3)Sc2c1ncn2C(=O)CC", "Trypanosoma cruzi", "> 50.1 µM"],
  ["N#Cc1ccc(C(=O)Nc2cccc(-c3cccc(CN4CCC(O)CC4)c3)c2)cc1", "Trypanosoma cruzi", "31.6 µM"],
  ["CN(Cc1ccc(C(N)=O)cc1)C(c1ccc(F)cc1)c1cccnc1 (stereo not given)", "Trypanosoma cruzi", "> 50.1 µM"],
  ["O=C(N[C@H](CO)c1ccccc1)c1ccc(-c2c[nH]c3nccc(C(F)(F)F)c23)s1", "Trypanosoma cruzi", "12.6 µM"],
  ["O=C1CSC(c2cccnc2)N1c1ccc(Cl)cc1Cl (stereo not given)", "Trypanosoma cruzi", "> 50.1 µM"],
  ["Cc1cc(N(C)C)nc(Nc2ccccc2C)n1", "Trypanosoma cruzi", "> 50.1 µM"],
  ["CC(C)COC(=O)Nc1ccc(N2CCC(CNS(=O)(=O)c3ccccc3)CC2)c(F)c1", "Trypanosoma cruzi", "> 79.4 µM"],
  ["O=C(CN(Cc1ccccn1)Cc1ccccn1)NC1Cc2ccccc2C1", "Trypanosoma cruzi", "> 79.4 µM"],
  ["CC(C)N(C(=O)CN1C(=O)C(N)C(=O)N(c2ccccc2)c2ccccc21)c1ccccc1 (stereo not given)", "Trypanosoma cruzi", "> 50.1 µM"],
  ["COc1ccc(C(=O)Nc2c(C)nn(COc3cccc(C(F)(F)F)c3)c2C)cc1", "Trypanosoma cruzi", "> 50.1 µM"],
  ["COc1ncc(-c2ccc3nccc(-c4ccncc4)c3c2)cc1NS(=O)(=O)C1CC1", "Trypanosoma cruzi", "0.794 µM"],
  ["COc1cc(F)c2ncc(F)c(CCN3CC[C@H](NCc4cc5c(cn4)OCS5)[C@@H](O)C3)c2c1", "Trypanosoma cruzi", "> 50.1 µM"],
  ["Nc1nc(-c2ccccn2)nc(-n2nc(-c3ccccc3)cc2N)n1", "Trypanosoma cruzi", "2 µM"],
  ["CC1CCCN(S(=O)(=O)c2ccc(C(=O)Nc3nc(-c4ccccn4)cs3)cc2)C1 (stereo not given)", "Trypanosoma cruzi", "3.16 µM"],
  ["Cc1ccccc1CNC(=O)CN(Cc1ccccn1)Cc1ccccn1", "Trypanosoma cruzi", "> 79.4 µM"],
  ["Cc1cccc(Nc2nc(-c3ccccn3)cs2)n1", "Trypanosoma cruzi", "0.631 µM"],
  ["CC(C)(C)Nc1nc(Nc2ccc3c(c2)CS(=O)(=O)C3)nc2[nH]ccc12", "Trypanosoma cruzi", "1 µM"],
  ["O=C(NCCc1ccccn1)C(c1cn[nH]c1)N1CCN(c2ccc(Cl)c(Cl)c2)CC1 (stereo not given)", "Trypanosoma cruzi", "> 50.1 µM"],
  ["c1ccc(CCNCc2cncc3nc(-c4cnccn4)n(C4CCCCC4)c23)cc1", "Trypanosoma cruzi", "> 50.1 µM"],
  ["O=S(=O)(c1cccc(CSc2nnc(-c3ccc4c(c3)OCO4)o2)c1)N1CCOCC1", "Trypanosoma cruzi", "25.1 µM"]
]}

Values from ChEMBL document CHEMBL3430912
